# experimental_details: physchem
# Assay type: physicochemical
# test_context: solid, 75% relative humidity, with K2 HPO4, mole ratio 1:1; 40° C., relative humidity of 75%; read-out: Content of the Active Ingredient after 15 days
measure_name: remaining at 360 h

Per the records, this compound ( COc1ccc2[nH]c([S+]([O-])Cc3ncc(C)c(OC)c3C)nc2c1 (stereo not shown) [Omeprazole, omeprazole, reference compound] ) has remaining at 360 h equal to 70.7%

* * *

# experimental_details: physchem
# Assay type: physicochemical
# test_context: solid, 75% relative humidity, with Mg(OH)2, mole ratio 1:1; 40° C., relative humidity of 75%; read-out: Content of the Active Ingredient after 15 days
measure_name: remaining at 360 h
The answer should read as a number with its unit following.

Per the records, this compound ( COc1ccc2[nH]c([S+]([O-])Cc3ncc(C)c(OC)c3C)nc2c1 (stereo not shown) [Omeprazole, omeprazole, reference compound] ) has remaining at 360 h equal to 86.1%

* * *

# experimental_details: physchem
# Format: physicochemical
# test_context: solid, 75% relative humidity, with Al(OH)3, mole ratio 1:1; 40° C., relative humidity of 75%; read-out: Content of the Active Ingredient after 15 days
# Procedure: . Then, the content of the active ingredient not decomposed was analyzed using a high performance liquid chromatography. The sample containing only the active ingredient without a stabilizer was used as a control. <Conditions for High Performance Liquid Chromatography> Column: μ-Bondapak C18 (4.6×250 mm) or the like Detector: Absorption photometer in ultraviolet part (wavelength: 280 nm) Mobile Phase: acetonitrile/phosphate buffer (pH 7.8)=45/55, v/v
measure_name: remaining at 360 h (%)
# unit: % | format: bare number

Per the records, this compound ( COc1ccc2[nH]c([S+]([O-])Cc3ncc(C)c(OC)c3C)nc2c1 (stereo not shown) [Omeprazole, omeprazole, reference compound] ) has remaining at 360 h equal to 67.6

* * *

# experimental_details: physchem
# Format: physicochemical
# test_context: solid, 75% relative humidity, with Histidine, mole ratio 1:1; 40° C., relative humidity of 75%; read-out: Content of the Active Ingredient after 15 days
measure_name: remaining at 360 h (%)
# unit: % | format: bare number

Per the records, this compound ( COc1ccc2[nH]c([S+]([O-])Cc3ncc(C)c(OC)c3C)nc2c1 (stereo not shown) [Omeprazole, omeprazole, reference compound] ) has remaining at 360 h equal to 67.1

* * *

# experimental_details: physchem
# Type: physicochemical
# test_context: solid, 75% relative humidity, with Na2 CO3, mole ratio 1:1; 40° C., relative humidity of 75%; read-out: Content of the Active Ingredient after 15 days
measure_name: remaining at 360 h (%)
# unit: % | format: bare number

Per the records, this compound ( COc1ccc2[nH]c([S+]([O-])Cc3ncc(C)c(OC)c3C)nc2c1 (stereo not shown) [Omeprazole, omeprazole, reference compound] ) has remaining at 360 h equal to 75.3

* * *

# experimental_details: physchem
# Type: physicochemical
# test_context: solid, 75% relative humidity, with K2 CO3, mole ratio 1:1; 40° C., relative humidity of 75%; read-out: Content of the Active Ingredient after 15 days
measure_name: remaining at 360 h (%)
# unit: % | format: bare number

Per the records, this compound ( COc1ccc2[nH]c([S+]([O-])Cc3ncc(C)c(OC)c3C)nc2c1 (stereo not shown) [Omeprazole, omeprazole, reference compound] ) has remaining at 360 h equal to 63.9

* * *

# experimental_details: physchem
# Type: physicochemical
# test_context: solid, 75% relative humidity, with Lysine, mole ratio 1:1; 40° C., relative humidity of 75%; read-out: Content of the Active Ingredient after 15 days
measure_name: remaining at 360 h (%)
# unit: % | format: bare number

Per the records, this compound ( COc1ccc2[nH]c([S+]([O-])Cc3ncc(C)c(OC)c3C)nc2c1 (stereo not shown) [Omeprazole, omeprazole, reference compound] ) has remaining at 360 h equal to 60.3

* * *

# experimental_details: physchem
# Format: physicochemical
# test_context: solid, 75% relative humidity, with Na2 HPO4, mole ratio 1:1; 40° C., relative humidity of 75%; read-out: Content of the Active Ingredient after 15 days
measure_name: remaining at 360 h
The answer should read as a number with its unit following.

Per the records, this compound ( COc1ccc2[nH]c([S+]([O-])Cc3ncc(C)c(OC)c3C)nc2c1 (stereo not shown) [Omeprazole, omeprazole, reference compound] ) has remaining at 360 h equal to 94%

* * *

# experimental_details: physchem
# Type: physicochemical
# test_context: solid, 75% relative humidity, with NaHCO3, mole ratio 1:1; 40° C., relative humidity of 75%; read-out: Content of the Active Ingredient after 15 days
measure_name: remaining at 360 h (%)
# unit: % | format: bare number

Per the records, this molecule ( COc1ccc2[nH]c([S+]([O-])Cc3ncc(C)c(OC)c3C)nc2c1 (stereo not shown) [Omeprazole, omeprazole, reference compound] ) has remaining at 360 h equal to 87.5
